The next entries give measured IC50 for EGFR (UniProt P00533).

Compound: COc1cc(Nc2ncnc(-n3c(NCc4ccccc4)nc4ccccc43)n2)cc(OC)c1OC
IC50: 2.4 to 3.5 µg/mL
//
Compound: COc1cc(Nc2ncnc(-n3c(Nc4ccc5[nH]ncc5c4)nc4ccccc43)n2)cc(OC)c1OC
IC50: 3.5 to 4.5 µg/mL
//
Compound: COc1ccc(Nc2ncnc(NCCNC(C)=O)n2)cc1OC
IC50: > 4.5 µg/mL
//
Compound: COc1cc(Nc2ncnc(Nc3ccc4c(c3)CCC4)n2)cc(OC)c1OC
IC50: 0.4 to 2.4 µg/mL
//
Compound: COc1cc(Nc2ncnc(-c3cccnc3)n2)cc(OC)c1OC
IC50: > 4.5 µg/mL

The recorded IC50 for entry `CC(C)Nc1ncccc1-c1ncnc(Nc2cccc(CC(=O)O)c2)n1` equals > 4.5 µg/mL

Reported IC50 ( `COc1cc(Nc2ncnc(-n3ccnc3Cl)n2)cc(OC)c1OC` ) = 0.4 to 2.4 µg/mL

The reported value for COc1cc(Nc2ncnc(-n3c(NC(C)c4ccc(F)cc4)nc4ccccc43)n2)cc(OC)c1OC (stereo unspecified) in terms of IC50 is > 4.5 µg/mL

get_value(item= `NC(=O)Cc1cccc(Nc2ncnc(-n3c(N)nc4ccccc43)n2)c1` , readout=IC50) returns > 4.5 µg/mL

IC50 in this record for `Nc1nc2ccccc2n1-c1ncnc(Nc2cccc(-c3cnco3)c2)n1` : 0.4 to 2.4 µg/mL

Lookup result for `COc1cc(Nc2ncnc(-n3c(N)nc4ccccc43)n2)cc(OC)c1` ; measured IC50: > 4.5 µg/mL

---

molecular target: EGFR (UniProt P00533)
Sequence (P00533 whole entry, looked up): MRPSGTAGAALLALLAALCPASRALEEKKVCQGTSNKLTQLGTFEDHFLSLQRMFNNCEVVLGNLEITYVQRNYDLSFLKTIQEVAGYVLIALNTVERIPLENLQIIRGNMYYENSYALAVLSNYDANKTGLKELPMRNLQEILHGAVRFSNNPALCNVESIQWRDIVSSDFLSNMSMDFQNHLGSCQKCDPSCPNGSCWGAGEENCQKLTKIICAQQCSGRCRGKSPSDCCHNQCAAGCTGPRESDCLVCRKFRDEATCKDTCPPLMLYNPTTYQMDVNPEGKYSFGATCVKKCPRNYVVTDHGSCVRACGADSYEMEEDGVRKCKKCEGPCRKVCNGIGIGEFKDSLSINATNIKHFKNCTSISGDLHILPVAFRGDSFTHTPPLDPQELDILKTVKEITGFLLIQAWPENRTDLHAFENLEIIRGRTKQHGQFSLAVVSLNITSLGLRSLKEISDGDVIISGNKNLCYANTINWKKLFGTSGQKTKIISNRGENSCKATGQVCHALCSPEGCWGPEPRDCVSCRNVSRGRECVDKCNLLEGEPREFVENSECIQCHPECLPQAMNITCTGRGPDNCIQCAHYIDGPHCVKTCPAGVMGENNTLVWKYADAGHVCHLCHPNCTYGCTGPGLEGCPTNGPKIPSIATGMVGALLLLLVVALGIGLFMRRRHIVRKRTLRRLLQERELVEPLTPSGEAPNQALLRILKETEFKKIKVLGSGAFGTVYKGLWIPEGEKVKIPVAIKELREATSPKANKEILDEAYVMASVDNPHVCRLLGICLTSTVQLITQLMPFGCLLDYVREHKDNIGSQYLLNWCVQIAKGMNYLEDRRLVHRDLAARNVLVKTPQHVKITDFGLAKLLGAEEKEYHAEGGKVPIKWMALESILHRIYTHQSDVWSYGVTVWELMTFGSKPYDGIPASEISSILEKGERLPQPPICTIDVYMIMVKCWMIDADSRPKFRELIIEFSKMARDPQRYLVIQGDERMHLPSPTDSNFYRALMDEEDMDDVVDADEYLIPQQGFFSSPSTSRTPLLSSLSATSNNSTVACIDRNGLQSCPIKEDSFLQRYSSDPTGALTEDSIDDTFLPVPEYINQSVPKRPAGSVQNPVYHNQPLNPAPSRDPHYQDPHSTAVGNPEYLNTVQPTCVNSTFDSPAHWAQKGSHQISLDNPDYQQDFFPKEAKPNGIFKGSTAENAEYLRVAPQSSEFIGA
Property: IC50; scope: individual molecules

Solved cases below.
Molecule: CC(C)(C)c1cc(Nc2ncnc(Nc3cccc(CO)c3)n2)[nH]n1
Result: 0.4 to 2.4 µg/mL

Molecule: COc1cc(Nc2ncnc(Nc3ccc(C(N)=O)cc3)n2)cc(OC)c1OC
Result: > 4.5 µg/mL

Molecule: CCN(CC)CCCNc1ccc(-c2ncnc(Nc3cc(OC)c(OC)c(OC)c3)n2)cn1
Result: > 4.5 µg/mL

Molecule: COc1ccc(CNc2ncnc(Nc3cc(OC)c(OC)c(OC)c3)n2)cc1
Result: > 4.5 µg/mL

Molecule: CCOc1cccc(Nc2ncnc(N3CCCc4cc(C)ccc43)n2)c1
Result: < 0.4 µg/mL

Molecule: COc1cc(Nc2ncnc(-c3cccnc3NC3CCN(Cc4ccccc4)CC3)n2)cc(OC)c1OC
Result: > 4.5 µg/mL

Molecule: COc1cc(Nc2ncnc(-n3c(NC(CCO)c4ccccc4)nc4ccccc43)n2)cc(OC)c1OC (stereo not given)
Result: > 4.5 µg/mL

Molecule: COC(=O)c1cc(Nc2ncnc(Nc3cc(-c4ccco4)n[nH]3)n2)cc(C(=O)OC)c1
Result: > 4.5 µg/mL

Molecule: Clc1cccc(Nc2ncnc(-n3cccc3)n2)c1
Result: > 4.5 µg/mL

Here is another molecule to look at.
According to the records, this molecule `COc1cc(Nc2ncnc(Nc3ccc(O)nc3)n2)cc(OC)c1OC` displays IC50 of 0.4 to 2.4 µg/mL

---

molecular target: EGFR (UniProt P00533)
Metric: IC50

Molecule: COc1ccc(Nc2ncnc(NCc3ccc(C)c(Cl)c3)n2)cc1OC
IC50: > 4.5 µg/mL
--
Molecule: COc1ccc(CNc2ncnc(Nc3cc(-c4ccco4)[nH]n3)n2)cc1OC
IC50: 0.4 to 2.4 µg/mL
--
Molecule: Cc1ccc2c(c1)CCCN2c1ncnc(NCc2ccc(C(=O)O)cc2)n1
IC50: > 4.5 µg/mL
--
Molecule: COc1ccc(Nc2ncnc(N(C)c3ccc(Cl)c(Cl)c3)n2)cc1OC
IC50: < 0.4 µg/mL
--
Molecule: O=c1[nH]c2ccccc2n1-c1ncnc(Nc2ccncn2)n1
IC50: 2.4 to 3.5 µg/mL
--
Molecule: COc1cc(NC(=O)Nc2ncnc(Nc3cc(OC)c(OC)c(OC)c3)n2)cc(OC)c1
IC50: > 4.5 µg/mL
--
Molecule: Cc1ccc2c(c1)CCCN2c1ncnc(NCC2CCCO2)n1 (stereo not given)
IC50: > 4.5 µg/mL
--
Molecule: COc1cc(Nc2ncnc(-c3cccnc3Nc3cccc(Oc4ccccc4)c3)n2)cc(OC)c1OC
IC50: > 4.5 µg/mL

Record for `NC(=O)c1ccccc1Nc1ncnc(-n2c(N)nc3ccccc32)n1` under target or system EGFR (UniProt P00533): IC50 reported as > 4.5 µg/mL

Value sought: IC50, system EGFR (UniProt P00533), item `CC(C)(C)c1cc(Nc2ncnc(Nc3cccc(CC(=O)O)c3)n2)[nH]n1` . Result: 0.4 to 2.4 µg/mL

Data provenance: the Kinase Knowledgebase extract (Sharma et al. 2016)
